biological target: plasma renin activity (PRA) (Macaca fascicularis); conditions: male Macaca fascicularis; 1 mg/kg orally in 0.5% methylcellulose; plasma 4 hr after administration; amended with vehicle group
Sequence (Q6DLS0 67-406): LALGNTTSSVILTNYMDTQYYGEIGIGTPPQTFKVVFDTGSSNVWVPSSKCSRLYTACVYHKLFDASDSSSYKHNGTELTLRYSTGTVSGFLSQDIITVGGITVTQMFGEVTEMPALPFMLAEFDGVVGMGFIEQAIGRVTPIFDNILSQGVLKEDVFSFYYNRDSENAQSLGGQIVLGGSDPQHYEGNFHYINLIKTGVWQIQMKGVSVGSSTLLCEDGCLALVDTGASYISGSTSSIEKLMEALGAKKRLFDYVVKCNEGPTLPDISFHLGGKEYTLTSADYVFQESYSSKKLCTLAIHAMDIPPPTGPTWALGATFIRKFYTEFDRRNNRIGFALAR
Counter-ions that a name gives are not always drawn.
value kind: Macaca fascicularis plasma renin activity: PPA inhibitory activity (%, n = 3-7) (%)
Give the number; % is assumed, so skip it.

[[record]]
compound = "COCCCCn1c(C(=O)N(CC(C)C)[C@@H]2CNC[C@H](C(=O)O)C2)nc2ccccc21 [Example 33, dihydrochloride]"
unit_string = "%"
value = 77

[[record]]
compound = "COCCCCn1c(C(=O)N(CC(C)C)[C@@H]2CNC[C@H](C(=O)OCc3oc(=O)oc3C)C2)nc2ccccc21 [Example 7, dihydrochloride]"
unit_string = "%"
value = 93

[[record]]
compound = "CC[C@H](O)[C@H]1CNC[C@@H](N(CC(C)C)C(=O)c2nc3ccccc3n2CCCCOC)C1.Cl.Cl"
unit_string = "%"
value = 86


Query: Lab note: need Macaca fascicularis plasma renin activity: PPA inhibitory activity (%, n = 3-7) with plasma renin activity (PRA) (Macaca fascicularis) for entry COCCCCn1c(C(=O)N(CC(C)C)[C@@H]2CNC[C@H](C(=O)N3CCOCC3)C2)nc2ccccc21 [Example 10, dihydrochloride] , please look it up.
Response: 72

Query: Lab note: need Macaca fascicularis plasma renin activity: PPA inhibitory activity (%, n = 3-7) with plasma renin activity (PRA) (Macaca fascicularis) for entry COCCCCn1c(C(=O)N(CC(C)C)[C@@H]2CNC[C@H](C(=O)N3CCCC3)C2)nc2ccc(OC)cc21 [Example 62, dihydrochloride] , please look it up.
Response: 75

Query: Lab note: need Macaca fascicularis plasma renin activity: PPA inhibitory activity (%, n = 3-7) with plasma renin activity (PRA) (Macaca fascicularis) for entry COCCCCc1c(C(=O)N(CC(C)C)[C@@H]2CNC[C@H](C(=O)N3CCOCC3)C2)nnn1-c1ccccc1Cl.Cl , please look it up.
Response: 62
